# Tested on: HCT116
# assay_remarks: viability inhibition vs untreated; higher = more cytotoxic
# reported_conditions: genotype: MTA1-KO; 400 nM; 72 h
measured_endpoint: viability inhibition (%)
Give just the numeric value; % need not be written.

# molecule, viability inhibition (%)
records = [
    ("CC(C)c1ccc(C(=O)N=C(N)N)cc1S(C)(=O)=O [Cariporide]", -32),
    ("NC(=O)N/N=C/c1ccc([N+](=O)[O-])o1 [Furacilin]", -4.15),
    ("O=C1c2cccc(O)c2C(=O)c2c(O)cccc21 [Antrapurol]", -8.24),
    ("Cc1ccc(NC(=O)Nc2cc(-c3ccccc3-c3nn[nH]n3)ccc2N(CC(C)C)CC(C)C)cc1 [DO-IN-2]", 7.91),
    ("Nc1nc(NC2CC2)cc(-c2cccc(Cl)c2Cl)n1 [TH588]", 2.73),
]

Next up:
Qu. // lookup viability inhibition for NCC(=O)Nc1ccc(-n2nc(C(F)(F)F)cc2-c2ccc3c(ccc4ccccc43)c2)cc1
Ans. 10.6
